For each entry below, report its melting point value.

Batch of 3 molecules: report melting point for each.
1. CS(=O)(=O)N[C@H]1CC[C@H](Nc2nccc(-c3cnc4ccccn34)n2)CC1
2. CS(=O)(=O)CCCOc1cccn2c(-c3ccnc(N[C@H]4CC[C@H](C(=O)N5CCC(O)CC5)CC4)n3)cnc12
3. O=C([C@H]1CC[C@H](Nc2nccc(-c3cnc4c(OCc5ccccc5)cccn34)n2)CC1)N1CCC(O)CC1

259 to 261 °C
258 to 259 °C
210 to 212 °C

---

For each entry below, report its melting point value.

>>> result("CCOC(=O)[C@H]1CC[C@H](Nc2nccc(-c3cnc4c(OCc5ccccc5)cccn34)n2)CC1")
"147 to 149 °C"

Batch of 2 compounds: report melting point for each.
1. CN(C)S(=O)(=O)N[C@H]1CC[C@H](Nc2nccc(-c3cnc4c(C(C)(C)O)cccn34)n2)CC1
2. CC(C)(O)c1cccn2c(-c3ccnc(N[C@H]4CC[C@H](CS(C)(=O)=O)CC4)n3)cnc12

1: > 300 °C; 2: 223 to 224 °C

---

For each entry below, report its pIC50 value.
Target: Human JNK1α1 (Homo sapiens (Human), UniProt P45983)
Sequence (P45983 other isoform, or with tags, fused parts or gaps): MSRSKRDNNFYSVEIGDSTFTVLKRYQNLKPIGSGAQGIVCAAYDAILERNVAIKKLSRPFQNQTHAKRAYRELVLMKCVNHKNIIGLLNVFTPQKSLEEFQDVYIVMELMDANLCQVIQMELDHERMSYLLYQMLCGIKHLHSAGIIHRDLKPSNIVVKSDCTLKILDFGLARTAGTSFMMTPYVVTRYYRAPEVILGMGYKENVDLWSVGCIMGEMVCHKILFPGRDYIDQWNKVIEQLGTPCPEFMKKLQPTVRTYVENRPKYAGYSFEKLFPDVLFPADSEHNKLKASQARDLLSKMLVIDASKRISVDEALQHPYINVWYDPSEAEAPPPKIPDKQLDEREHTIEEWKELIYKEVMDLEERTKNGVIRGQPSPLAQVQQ
Give bare numbers, as −log10 of the molar value.

# example entries with known answers
>>> numeric_value("CS(=O)(=O)CCCOc1cccn2c(-c3ccnc(N[C@H]4CC[C@H](C(=O)N5CCC(O)CC5)CC4)n3)cnc12 [Compound 5]")
7.67
>>> numeric_value("CCOC(=O)[C@H]1CC[C@H](Nc2nccc(-c3cnc4c(OCc5ccccc5)cccn34)n2)CC1 [Compound 8]")
7.31

Now for a further compound.
Data request, read-out pIC50, for O[C@H]1CC[C@H](Nc2nccc(-c3cnc4c(OCc5ccccc5)cccn34)n2)CC1 [Compound 9]
7.57

---

Entries below carry reported IC50 on UniProt P45984.
Sequence (P45984 whole entry): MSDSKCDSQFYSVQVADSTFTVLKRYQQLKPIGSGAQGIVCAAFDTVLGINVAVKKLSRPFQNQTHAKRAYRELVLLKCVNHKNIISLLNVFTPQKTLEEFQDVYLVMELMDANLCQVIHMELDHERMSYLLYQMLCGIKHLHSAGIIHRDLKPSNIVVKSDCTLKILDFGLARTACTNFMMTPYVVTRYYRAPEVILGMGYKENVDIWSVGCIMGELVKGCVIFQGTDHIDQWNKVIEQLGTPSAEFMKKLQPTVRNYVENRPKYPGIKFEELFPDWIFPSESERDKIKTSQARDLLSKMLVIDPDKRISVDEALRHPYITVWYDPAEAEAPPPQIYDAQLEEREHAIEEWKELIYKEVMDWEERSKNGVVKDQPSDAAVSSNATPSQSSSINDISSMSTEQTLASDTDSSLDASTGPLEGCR
One number for each entry, in nM.

# example entries with known answers
>>> numeric_value("CCOC(=O)[C@H]1CC[C@H](Nc2nccc(-c3cnc4c(OCc5ccccc5)cccn34)n2)CC1 [Compound 8]")
104
>>> numeric_value("CS(=O)(=O)CCCOc1cccn2c(-c3ccnc(N[C@H]4CC[C@H](C(=O)N5CCC(O)CC5)CC4)n3)cnc12 [Compound 5]")
50.3
>>> numeric_value("CS(=O)(=O)N[C@H]1CC[C@H](Nc2nccc(-c3cnc4c(OCc5ccccc5)cccn34)n2)CC1 [Compound 7]")
52.7

Now for a further compound.
Data request, read-out IC50, for O=C([C@H]1CC[C@H](Nc2nccc(-c3cnc4c(OCc5ccccc5)cccn34)n2)CC1)N1CCC(O)CC1 [Compound 6]
55.9

---

measured-quantity: melting point

# example entries with known answers
>>> result("CS(=O)(=O)N[C@H]1CC[C@H](Nc2nccc(-c3cnc4c(OCc5ccccc5)cccn34)n2)CC1 [Compound 7]")
"236.9 to 241 °C"
>>> result("O[C@H]1CC[C@H](Nc2nccc(-c3cnc4c(OCc5ccccc5)cccn34)n2)CC1 [Compound 9]")
"236 to 238 °C"
>>> result("CC(C)(O)c1cccn2c(-c3ccnc(N[C@H]4CC[C@H](C(=O)N5CCC(O)CC5)CC4)n3)cnc12 [Compound 2]")
"188 to 190 °C"

Now for a further compound.
Data request, read-out melting point, for CC(C)(O)c1cccn2c(-c3ccnc(N[C@H]4CC[C@H](NS(C)(=O)=O)CC4)n3)cnc12 [Compound 3]
249 to 250 °C
